assay: TNS fluorescence pH titration: apparent pKa and % charged of aminolipids in liposomal membranes; format: physicochemical; conditions: Table 1; pH 7.5; from TNS fluorescence titrations
This listing pairs compounds with measured % Charged at pH 7.5.
State the answer as a number, implicitly in %.

In [3]: df
Out[3]:
                                   compound  observed
0  CCCCCCCC/C=C\CCCCCCCC(=O)OCC(CN(C)C)OC(=O)CCCCCCCCC (racemic) [AL-5]        14

Lookup result for CCCCCCCC/C=C\CCCCCCCC(=O)OCC(CN(C)C)OC(=O)CCC (racemic) [AL-4] ; measured % Charged at pH 7.5: 13

----------
test: TNS fluorescence pH titration: apparent pKa and % charged of aminolipids in liposomal membranes; assay type: physicochemical; settings: Table 1; pH 7.5; from TNS fluorescence titrations
This listing pairs compounds with measured % Charged at pH 7.5.
State the answer as a number, implicitly in %.

Below are worked cases with known answers.
>>> print(df.to_string())
                                   compound         readout_kind  observed
0  CCCCCCCCCC(=O)OCC(CN(C)C)OC(=O)CCCCCCCCC (racemic)  % Charged at pH 7.5        17
1  CCCCCCCC/C=C\CCCCCCCC(=O)OCC(O)CN(C)C (racemic)  % Charged at pH 7.5        54

Lookup result for CCCCCCCC/C=C\CCCCCCCC(=O)OCC(CN(C)C)OC(C)=O (racemic) ; measured % Charged at pH 7.5: 16
